test system: SHP77; assay: cells; assay type: functional, cell-based, SHP-77; details: Homo sapiens;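 also: growth inhibition of human SHP-77 cells measured by a cell viability assay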
Description: SANGER: Inhibition of human SHP-77 cell growth in a cell viability assay.
pIC50: −log10 of the molar value.
# pIC50 values compiled below

Cn1c(=O)n(-c2ccc(C(C)(C)C#N)cc2)c2c3cc(-c4cnc5ccccc5c4)ccc3ncc21
< 5.70
CC[C@]1(O)C[C@@H]2CN(CCc3c([nH]c4ccccc34)[C@@](C(=O)OC)(c3cc4c(cc3OC)N(C)[C@H]3[C@@](O)(C(=O)OC)[C@H](OC(C)=O)[C@]5(CC)C=CCN6CC[C@]43[C@@H]65)C2)C1
< 7.00
C[C@]12O[C@H](C[C@]1(O)CO)n1c3ccccc3c3c4c(c5c6ccccc6n2c5c31)CNC4=O
< 5.70
C/C=C(/C)C(=O)O[C@H]1C(C)=C2[C@H]([C@@H]1OC(=O)CCCCCCC)[C@@](C)(OC(C)=O)C[C@H](OC(=O)CCC)[C@@]1(O)[C@H]2OC(=O)[C@@]1(C)O
7.23

I'd like to know its pIC50. The compound in question is "CC[C@@]1(O)C(=O)OCc2c1cc1n(c2=O)Cc2cc3ccccc3nc2-1" < 7.00

What do you have for "COc1cc(Nc2c(C#N)cnc3cc(OCCCN4CCN(C)CC4)c(OC)cc23)c(Cl)cc1Cl" ? < 5.70

Data origin: ChEMBL document CHEMBL1201861
